Reported half-life values for the following compounds.
Assay: Half-life measured on Bacteroides fragilis in BHIS medium
Type: ADME, organism-based
Conditions: Bacteroides fragilis culture

As a guide, the following entries are already answered.
Req: Give recorded half-life. "Cn1cnc(N=O)c1-c1ccccc1"
Resp: < 2 min

Req: Give recorded half-life. "Cn1cnc(-c2ccccc2)c1N=O"
Resp: < 2 min

Please examine the following record next.
Req: Give recorded half-life. "O=Nc1[nH]cnc1-c1ccccc1"
Resp: < 2 min

----------
Reported MIC values for the following compounds.
Test system: Clostridium perfringens
Assay: Minimum inhibitory concentration measured against Clostridium perfringens strain
Assay type: functional
Expressed in µM, but write only the number.

As a guide, the following entries are already answered.
Req: Give recorded MIC. "Cn1cnc(-c2ccccc2)c1[N+](=O)[O-]"
Resp: 15

Req: Give recorded MIC. "Cc1ncc([N+](=O)[O-])n1CCO"
Resp: 13

Next:
Req: Give recorded MIC. "O=[N+]([O-])c1[nH]cnc1-c1ccccc1"
Resp: 250

----------
Test: Half-life measured on Escherichia coli SR58 in BHI medium; value ranges from 3-4
Assay type: ADME, organism-based
Details: Escherichia coli SR58 culture
ASSAY ENDPOINT: half-life (min)
Expressed in min, but write only the number.

Req: Give recorded half-life. "Cn1cnc(-c2ccccc2)c1N=O"
Resp: 3

----------
Assay: Half-life measured in 0.1 M KPO4 buffer at PH 7
Format: ADME
Settings: 0.1 M potassium phosphate buffer
ASSAY ENDPOINT: half-life
Reply with a number, then the unit it belongs to.

Req: Give recorded half-life. "Cn1cnc(-c2ccccc2)c1N=O"
Resp: 9 h

Please examine the following record next.
Req: Give recorded half-life. "O=Nc1[nH]cnc1-c1ccccc1"
Resp: 5.5 h

----------
Assay: Half-life measured in BHI spent medium
Format: ADME
ASSAY ENDPOINT: half-life (min)
Expressed in min, but write only the number.

Req: Give recorded half-life. "Cn1cnc(N=O)c1-c1ccccc1"
Resp: 160

Next:
Req: Give recorded half-life. "Cn1cnc(-c2ccccc2)c1N=O"
Resp: 40

----------
Test: Half-life measured on Escherichia coli SR58 in BHI medium; value ranges from 4-6
Format: ADME, organism-based
Details: Escherichia coli SR58 culture
ASSAY ENDPOINT: half-life
Reply with a number, then the unit it belongs to.

Req: Give recorded half-life. "Cn1cnc(N=O)c1-c1ccccc1"
Resp: 4 min

----------
Experiment: Half-life measured in 0.1 M KPO4 buffer atPH 7
Format: ADME
Conditions: 0.1 M potassium phosphate buffer, pH 7
ASSAY ENDPOINT: half-life

Req: Give recorded half-life. "Cn1cnc(N=O)c1-c1ccccc1"
Resp: > 10 h

----------
Test: Half-life measured on Escherichia coli SR58 in BHI medium; value ranges from 1-3
Assay type: ADME, organism-based
Conditions: Escherichia coli SR58 culture
ASSAY ENDPOINT: half-life (min)
Expressed in min, but write only the number.

Req: Give recorded half-life. "O=Nc1[nH]cnc1-c1ccccc1"
Resp: 1

----------
System: Escherichia coli
Assay: Minimum inhibitory concentration measured against Escherichia coli SR58 strain (RecA- UvrB-)
Format: functional
Reported MIC values for the following compounds.
Expressed in µM, but write only the number.

Req: Give recorded MIC. "Cc1ncc([N+](=O)[O-])n1CCO"
Resp: 100

Req: Give recorded MIC. "Cn1cnc(-c2ccccc2)c1[N+](=O)[O-]"
Resp: 8

Req: Give recorded MIC. "Cn1cnc([N+](=O)[O-])c1-c1ccccc1"
Resp: 500

Please examine the following record next.
Req: Give recorded MIC. "O=[N+]([O-])c1[nH]cnc1-c1ccccc1"
Resp: 130
